Biological target: human CD33 P46H (human, UniProt P20138 18-364)
Sequence (P20138 18-364 P46H limits assumed): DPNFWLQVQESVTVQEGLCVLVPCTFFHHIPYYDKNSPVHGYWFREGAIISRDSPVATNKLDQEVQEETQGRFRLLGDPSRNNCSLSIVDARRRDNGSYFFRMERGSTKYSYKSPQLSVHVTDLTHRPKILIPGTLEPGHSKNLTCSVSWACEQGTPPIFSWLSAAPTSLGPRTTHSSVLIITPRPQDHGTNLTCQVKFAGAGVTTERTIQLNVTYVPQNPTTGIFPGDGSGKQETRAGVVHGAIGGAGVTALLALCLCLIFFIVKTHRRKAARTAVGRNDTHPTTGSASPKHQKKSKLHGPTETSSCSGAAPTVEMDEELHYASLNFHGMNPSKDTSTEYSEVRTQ
Experiment: flow cytometry, mutant on cells, IgG
Kindly supply the reported Mean % WT Binding values for the records listed here.

GET /value?item= Refmab #1 (antibody, human IgG1, V domains shown, Tested in IgG format; human IgG1 (Absolute Antibody hP67.6, Cat. No. Ab00283-10.0); also called hP67.6) VH: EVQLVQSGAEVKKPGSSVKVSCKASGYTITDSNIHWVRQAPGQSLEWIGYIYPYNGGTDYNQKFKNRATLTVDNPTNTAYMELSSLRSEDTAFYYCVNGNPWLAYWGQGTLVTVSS VL: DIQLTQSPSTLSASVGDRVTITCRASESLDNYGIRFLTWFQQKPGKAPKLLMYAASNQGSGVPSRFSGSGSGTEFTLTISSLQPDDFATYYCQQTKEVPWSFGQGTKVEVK &field=Mean % WT Binding returns 0.7 % WT binding

GET /value?item= Refmab #2 (antibody, human IgG1, V domains shown, Tested in IgG format; human IgG1 Fc silent (PG-LALA)) VH: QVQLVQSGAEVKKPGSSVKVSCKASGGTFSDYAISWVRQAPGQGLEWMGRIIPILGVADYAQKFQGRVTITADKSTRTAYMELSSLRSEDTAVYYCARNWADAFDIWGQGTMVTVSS VL: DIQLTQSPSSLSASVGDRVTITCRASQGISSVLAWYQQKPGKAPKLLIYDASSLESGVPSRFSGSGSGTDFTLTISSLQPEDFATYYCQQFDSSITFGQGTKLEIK &field=Mean % WT Binding returns 95.1 % WT binding

GET /value?item= Refmab #3 (antibody, human IgG1, V domains shown, Tested in IgG format; human IgG1 Fc silent (PG-LALA)) VH: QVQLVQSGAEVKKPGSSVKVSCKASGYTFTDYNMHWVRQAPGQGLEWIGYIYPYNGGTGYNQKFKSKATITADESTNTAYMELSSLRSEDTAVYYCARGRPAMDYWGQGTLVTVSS VL: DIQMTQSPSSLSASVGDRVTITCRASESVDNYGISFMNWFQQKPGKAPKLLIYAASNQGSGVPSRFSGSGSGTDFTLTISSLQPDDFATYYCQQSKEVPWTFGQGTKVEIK &field=Mean % WT Binding returns 0.5 % WT binding

GET /value?item= Refmab #4 (antibody, human IgG1, V domains shown, Tested in IgG format; human IgG1 Fc silent (PG-LALA)) VH: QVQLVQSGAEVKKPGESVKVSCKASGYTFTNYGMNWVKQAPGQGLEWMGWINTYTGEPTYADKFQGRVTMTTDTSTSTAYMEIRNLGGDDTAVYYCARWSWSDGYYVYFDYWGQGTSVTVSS VL: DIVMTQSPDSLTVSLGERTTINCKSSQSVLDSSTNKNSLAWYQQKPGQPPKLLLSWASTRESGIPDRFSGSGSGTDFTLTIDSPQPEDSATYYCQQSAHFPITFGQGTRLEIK &field=Mean % WT Binding returns 69.5 % WT binding
